Molecular target: Recombinant human cathepsin A (Homo sapiens, UniProt P10619)
Construct: Recombinant human cathepsin A (residues 29-480, with a C-terminal 10-His tag); 10-His (C)
Sequence (P10619 29-326 limits assumed): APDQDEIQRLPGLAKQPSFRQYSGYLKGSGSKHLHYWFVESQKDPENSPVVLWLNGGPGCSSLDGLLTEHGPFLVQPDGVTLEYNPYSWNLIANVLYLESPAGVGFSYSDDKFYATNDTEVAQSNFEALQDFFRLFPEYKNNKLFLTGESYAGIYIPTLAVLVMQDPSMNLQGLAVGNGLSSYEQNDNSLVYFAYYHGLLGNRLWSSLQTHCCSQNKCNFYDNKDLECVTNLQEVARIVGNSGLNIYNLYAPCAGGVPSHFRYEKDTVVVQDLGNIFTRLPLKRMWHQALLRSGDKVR
Sequence (P10619 327-480 limits assumed): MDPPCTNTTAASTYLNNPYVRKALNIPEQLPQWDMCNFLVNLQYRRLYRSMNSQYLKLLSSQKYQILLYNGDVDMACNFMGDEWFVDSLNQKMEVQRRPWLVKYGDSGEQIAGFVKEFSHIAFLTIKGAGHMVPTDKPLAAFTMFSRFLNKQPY
Assay: Cathepsin A inhibitory activity
Settings: activated recombinant human cathepsin A 833 ng/ml, Bodipy FL-labeled bradykinin 2 μM, pH 5.5, 15 min room temperature
# label = 1 if IC50 < 400 nM else 0

Completed entries (count: 6):
Cc1oc(-c2ccccc2)nc1C(=O)NC(CC(=O)O)Cc1ccccc1 (centres unmarked) :: 0
Cc1ccccc1[C@H](CC(=O)O)NC(=O)c1nc(-c2ccccc2)oc1C :: 1
CC(C)c1oc(-c2ccccc2)nc1C(=O)N[C@@H](CC(=O)O)c1ccccc1 :: 0
O=C(O)C[C@H](NC(=O)c1nc(-c2ccccc2)oc1C(F)(F)F)c1ccc(Cl)cc1Cl :: 0
O=C(O)C[C@H](NC(=O)c1nc(-c2ccccc2)oc1C(F)(F)F)c1cccc(Cl)c1Cl :: 0
COc1cccc([C@H](CC(=O)O)NC(=O)c2nc(-c3ccccc3)n(-c3ccccc3)n2)c1 :: 0

Lookup: API: query returns whether the compound falls strictly under 400 nM in IC50. Query: O=C(N[C@@H](Cc1ccc(Cl)cc1)C(=O)O)c1noc(-c2cnccc2C(F)(F)F)n1
Found: 0

Lookup: API: query returns whether the compound falls strictly under 400 nM in IC50. Query: O=C(O)C[C@H](NC(=O)c1noc(-c2cccc(F)c2F)n1)c1ccccc1F
Found: 1

----------
Biological target: Recombinant human cathepsin A (Homo sapiens, UniProt P10619)
Construct: Recombinant human cathepsin A (residues 29-480, with a C-terminal 10-His tag); 10-His (C)
Assay: Cathepsin A inhibitory activity
Conditions: activated recombinant human cathepsin A 833 ng/ml, Bodipy FL-labeled bradykinin 2 μM, pH 5.5, 15 min room temperature
Method: a) Cathepsin a Inhibitory Activity Briefly, cathepsin A was incubated at 10 μg/ml with cathepsin L at 1 μg/ml in activation buffer (25 mM 2-(morpholin-4-yl)-ethanesulfonic acid (MES), pH 6.0, containing 5 mM dithiothreitol (DTT)) for 15 min at 37° C. […] Uncleaved substrate and product were then separated by a microfluidic capillary electrophoresis on a LabChip® 3000 Drug Discovery System (12-Sipper-Chip; Caliper Life Sciences) and quantified by determination of the respective peak areas. […]
# label = Yes if IC50 < 0.8 µM else No

Completed entries (count: 5):
CCCS(=O)(=O)Nc1cn(C)nc1C(=O)N[C@@H](CC(=O)O)c1ccccc1C :: No
COc1cccc([C@H](CC(=O)O)NC(=O)c2nc(-c3ccccc3)oc2C(C)C)c1 :: No
O=C(O)C[C@H](NC(=O)c1noc(-c2cccc(F)c2F)n1)c1ccccc1C(F)(F)F :: No
Cc1cccc([C@H](CC(=O)O)NC(=O)CCc2nc(-c3ccccc3F)no2)c1 :: No
Cc1ccccc1[C@H](CC(=O)O)NC(=O)c1cc(-c2ccccc2)n(Cc2ccccc2)n1 :: Yes

Lookup: API: query returns whether the compound falls strictly under 0.8 µM in IC50. Query: COc1cccc([C@H](CC(=O)O)NC(=O)c2nc(-c3ccccc3)oc2C)c1
Found: No

Lookup: API: query returns whether the compound falls strictly under 0.8 µM in IC50. Query: CC(C)c1oc(-c2ccccc2)nc1C(=O)NC(CC(=O)O)C1CCCCC1 (centres unmarked)
Found: No

Lookup: API: query returns whether the compound falls strictly under 0.8 µM in IC50. Query: CCc1nc(C(=O)N[C@@H](CC(=O)O)c2ccccc2C)nn1-c1ccccc1Cl
Found: Yes

Lookup: API: query returns whether the compound falls strictly under 0.8 µM in IC50. Query: Cc1oc(-c2ccccc2)nc1C(=O)N[C@@H](CC(=O)O)c1cccc(F)c1
Found: No

Lookup: API: query returns whether the compound falls strictly under 0.8 µM in IC50. Query: O=C(O)C[C@H](NC(=O)c1nc(-c2ccccc2)n(-c2ccccc2)n1)c1ccccc1
Found: Yes

Lookup: API: query returns whether the compound falls strictly under 0.8 µM in IC50. Query: CCc1nc(C(=O)N[C@@H](CC(=O)O)c2ccccc2)nn1-c1ccccc1Cl
Found: No

Lookup: API: query returns whether the compound falls strictly under 0.8 µM in IC50. Query: O=C(O)C[C@H](NC(=O)CCc1nc(-c2ccccc2F)no1)c1ccc(F)cc1
Found: No

Lookup: API: query returns whether the compound falls strictly under 0.8 µM in IC50. Query: O=C(O)C[C@@H](Cc1ccccc1)NC(=O)c1noc(-c2cccc(F)c2F)n1
Found: No

Lookup: API: query returns whether the compound falls strictly under 0.8 µM in IC50. Query: O=C(O)C[C@H](NC(=O)c1nc(-c2ccccc2)n(-c2ccccc2)n1)c1ccccc1Cl
Found: Yes

Lookup: API: query returns whether the compound falls strictly under 0.8 µM in IC50. Query: Cc1oc(-c2ccccc2)nc1C(=O)N[C@@H](CC(=O)O)c1cccc(Cl)c1Cl
Found: Yes

Lookup: API: query returns whether the compound falls strictly under 0.8 µM in IC50. Query: Cc1ccc([C@H](CC(=O)O)NC(=O)c2noc(-c3cccc(F)c3F)n2)cc1
Found: No

----------
molecular target: Recombinant human cathepsin A (Homo sapiens, UniProt P10619); construct: Recombinant human cathepsin A (residues 29-480, with a C-terminal 10-His tag); 10-His (C); assay: Cathepsin A inhibitory activity; details: activated recombinant human cathepsin A 833 ng/ml, Bodipy FL-labeled bradykinin 2 μM, pH 5.5, 15 min room temperature
ASSAY ENDPOINT: pIC50
Give bare numbers, as −log10 of the molar value.

O=C(N[C@H](C(=O)O)C1CCCCC1)c1noc(-c2cnccc2C(F)(F)F)n1 [Example 54] :: 4.78
O=C(O)C[C@H](NC(=O)c1nc(-c2ccccc2)n(-c2ccccc2)n1)c1ccc(Cl)cc1Cl [Example 125] :: 6.62
CCCC1CCCCN1C(=O)c1cc(C(=O)N[C@@H](CC(=O)O)c2ccc(C)cc2)nn1CC (some centres unmarked) [Example 115] :: 5.60
O=C(O)CC(NC(=O)c1nc(-c2ccccc2)oc1C(F)(F)F)C1CCCCC1 (centres unmarked) [Example 68] :: 4.83
Cc1oc(-c2ccccc2F)nc1C(=O)N[C@@H](CC(=O)O)c1cccc(F)c1 [Example 36] :: 6.70
COc1ccc([C@H](CC(=O)O)NC(=O)c2nc(-c3ccccc3)oc2C)cc1 [Example 23] :: 5.62

Give pIC50 for each listed item.
1. Cc1oc(-c2ccccc2F)nc1C(=O)N[C@@H](CC(=O)O)c1cccc(C(F)(F)F)c1 [Example 92]
2. O=C(O)C[C@H](NC(=O)CCc1nc(-c2ccccc2F)no1)c1cccc(F)c1 [Example 60]
3. Cc1cccc([C@H](CC(=O)O)NC(=O)c2nc(-c3ccccc3F)oc2C)c1 [Example 27]
4. CC(C)c1oc(-c2ccccc2)nc1C(=O)N[C@@H](CC(=O)O)c1cccc(Cl)c1Cl [Example 103]
5. O=C(O)C[C@H](NC(=O)c1nc(-c2ccccc2)n(-c2ccccc2)n1)c1cccc(Cl)c1Cl [Example 124]
6. Cc1ccccc1[C@H](CC(=O)O)NC(=O)c1cc(-c2ccccc2)on1 [Example 2]
7. Cc1ccccc1[C@H](CC(=O)O)NC(=O)c1nc(C)n(-c2ccccc2Cl)n1 [Example 57]
8. CC(C)c1oc(-c2ccccc2)nc1C(=O)NC(CC(=O)O)Cc1ccccc1 (centres unmarked) [Example 45]

Found:
1. 5.94
2. 4.65
3. 5.46
4. 6.22
5. 7.29
6. 5.16
7. 6.58
8. 5.05

Lookup: Quick one: pIC50 of O=C(O)C[C@H](NC(=O)CCc1nc(-c2ccccc2F)no1)c1cccc(Cl)c1 [Example 74] ?
Found: 6.21

----------
Field: pIC50. Provide a value for each of the molecules that follow.
Target: Recombinant human cathepsin A (Homo sapiens)
Construct: Recombinant human cathepsin A (residues 29-480, with a C-terminal 10-His tag); 10-His (C)
Sequence (P10619 29-326 limits assumed): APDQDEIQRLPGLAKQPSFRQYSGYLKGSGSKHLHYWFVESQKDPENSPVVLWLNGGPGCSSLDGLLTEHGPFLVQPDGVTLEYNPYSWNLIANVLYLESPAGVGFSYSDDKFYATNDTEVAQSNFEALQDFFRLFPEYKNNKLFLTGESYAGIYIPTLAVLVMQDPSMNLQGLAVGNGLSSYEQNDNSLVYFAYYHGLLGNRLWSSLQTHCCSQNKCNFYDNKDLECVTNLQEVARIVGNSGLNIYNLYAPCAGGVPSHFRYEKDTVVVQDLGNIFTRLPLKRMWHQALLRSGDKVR
Sequence (P10619 327-480 limits assumed): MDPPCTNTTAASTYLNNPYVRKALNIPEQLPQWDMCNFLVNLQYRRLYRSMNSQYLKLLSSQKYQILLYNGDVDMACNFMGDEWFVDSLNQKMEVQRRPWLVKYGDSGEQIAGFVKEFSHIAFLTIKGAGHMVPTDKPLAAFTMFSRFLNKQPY
Assay: Cathepsin A inhibitory activity
Conditions: activated recombinant human cathepsin A 833 ng/ml, Bodipy FL-labeled bradykinin 2 μM, pH 5.5, 15 min room temperature
Numbers only, as −log10 of the molar value.

Cc1nc(C(=O)N[C@@H](CC(=O)O)c2ccccc2)nn1-c1ccccc1Cl :: 5.99
CC(C)c1oc(-c2ccccc2)nc1C(=O)N[C@@H](CC(=O)O)c1ccccc1Cl :: 5.85
O=C(O)C[C@H](NC(=O)c1noc(-c2ccccc2F)n1)c1ccc(F)cc1 :: 5.07
Cc1oc(-c2ccccc2)nc1C(=O)N[C@@H](CC(=O)O)c1ccc(Cl)cc1Cl :: 5.76
CCn1nc(C(=O)N[C@@H](CC(=O)O)c2ccccc2C)cc1-c1ccccc1 :: 6.82
O=C(O)C[C@H](NC(=O)c1noc(-c2cccc(F)c2F)n1)c1ccccc1 :: 5.13
O=C(O)C[C@H](NC(=O)c1noc(-c2ccccc2F)n1)c1ccccc1C(F)(F)F :: 4.92
C[C@@](CC(=O)O)(NC(=O)c1noc(-c2ccccc2F)n1)c1ccccc1 :: 4.76
O=C(O)CC(Cc1ccccc1)NC(=O)c1nc(-c2ccccc2)n(-c2ccccc2)n1 (centres unmarked) :: 5.65
Cc1oc(-c2ccccc2)nc1C(=O)N[C@@H](CC(=O)O)c1ccc(F)cc1 :: 5.25

Give pIC50 for each listed item.
1. Cc1oc(-c2ccccc2F)nc1C(=O)N[C@@H](CC(=O)O)c1ccccc1F
2. Cc1oc(-c2ccccc2)nc1C(=O)NC(CC(=O)O)C1CCCCC1 (centres unmarked)
3. Cc1ccccc1[C@H](CC(=O)O)NC(=O)c1nn(Cc2ccccc2)c2ccccc12
4. O=C(O)C[C@H](NC(=O)c1nc(-c2ccccc2)oc1C(F)(F)F)c1cccc(Cl)c1

Found:
[5.29, 5.30, 6.77, 4.99]
